- Assay Notes: physchem
Readout Name: pKa
One number for each entry.

In: Answer with reported pKa of "CC[C@@H](O)[C@]1(C)C[C@H](C)[C@@](O)([C@H]2C[C@H](C)[C@H]([C@]3(C)C[C@@H](O[C@H]4CC[C@H](OC)[C@@H](C)O4)[C@H]([C@]4(C)CC[C@@]5(O[C@H]([C@@H](C)[C@@H](OC)[C@H](C)C(=O)O)[C@H](C)[C@@H](OC)[C@H]5C)O4)O3)O2)O1"
Out: 6.6
